# System: MS2 coat protein
# protocol: apparent KD of MS2 coat protein; higher = weaker reporter binding
# condition-description: Eterna round: R107; input ligand: arginine 13.2 mM
Reported apparent KD of MS2 coat protein values follow for various sequences
assay-endpoint: apparent KD of MS2 coat protein (µM)

residues="GCUGUACCAUGAAGGAGCGCUCACGCAGUUGCGGGUACAUGAGGAUCACCCAUGUUGGGUGAGCAGGUAGGUCGCAUGGUACAGC [SSAB #17]" reported=0.227
residues="GCCGCGGCCGCGAUACACAUGGGUGUGUAACGAGGACCGGUACGGCCGCCACUCGAGAUGGUGCACAUGAGGAUCACCCAUGUGC [Exclusion Tryp A GF15]" reported=0.0103
residues="GAGCUCGUGGACUGGCGUGCUCCGCUCCGUCGAGGACCGGUACGGCCGCCACUCGACAUGAGGAUCACCCAUGUGCGAGCUCGCU [#1 Exclusion - Tryptophan A Attempt #22 (HarryS)]" reported=0.0114
residues="CUCCCGUGGUCGGCCGCCACUGGAGGCCUUGCGCGACAUGAGGAUCACCCAUGUUGGCCCGGCGUCAGGACCGGGAUCGCGUGAG [#1 Same State - Tryptophan B Attempt #10 (HarryS)]" reported=0.00886
residues="AUGUAAGUGGUGUCACUGUGGUCUAGUGAUACCAGUAUCGAAAGAUACCCUUGGCAGCGCUAGAACAUGAGGAUCACCCAUGUUU [#24 Exclusion-TheophyllineA]" reported=0.0348

Value source: the supplement of paper PMC9170038
